# targetSystem: T1, human B7-H4 (purified monomeric recombinant human protein, ACRO biosystems) (human, UniProt Q7Z7D3 29-258, limits assumed, chemically biotinylated (EZ-Link NHS-LC-Biotin) in the yeast display and competition experiments; non-biotinylated in SPR)
# T1 construct: Bought recombinant monomeric protein; also called B7x; B7S1
# T1 sequence: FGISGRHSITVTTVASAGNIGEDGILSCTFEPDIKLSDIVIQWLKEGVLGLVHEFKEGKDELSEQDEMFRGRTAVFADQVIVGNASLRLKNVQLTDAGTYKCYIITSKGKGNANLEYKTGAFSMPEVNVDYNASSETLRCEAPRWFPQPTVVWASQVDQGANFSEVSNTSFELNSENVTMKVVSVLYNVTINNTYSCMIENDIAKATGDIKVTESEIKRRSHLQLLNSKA
# assayName: SPR (Carterra LSA); scFv-Fc captured on anti-human IgG Fc, antigen injected
measuredMetric: Kd

| binder | measuredMetric | measuredResult |
| --- | --- | --- |
| A04 scFv-Fc (scFv, V domains shown, Tested as scFv-Fc fusion (human IgG1 Fc, vector pDNL9) in crude yeast supernatant; Combo 1 library) VH: EVQLVESGGGVVQPGRSLRLSCAASGFTFSSRSMNWVRQAPGKGLEWVSAISGSGDTTYYADSVKGRFTISRDNSKNTLYLQMNSLRAEDTAVYYCARKRWYGMDVWGQGTTVTVSS VL: SYELTQPPSVSVAPGKTARITCGGNNIGSKSVHWYQQKPGQAPVLVVYDDSDRPSGIPERFSGSNSGNTATLTISRVEAGDEADYYCQVWDRGMIFGTGTKLTVL | Kd | 0.069 nM |
| A10 scFv-Fc (scFv, V domains shown, Tested as scFv-Fc fusion (human IgG1 Fc, vector pDNL9) in crude yeast supernatant; Combo 2 library) VH: EVQLVESGGGVVQPGRSLRLSCAASGFTFSSRSMNWVRQAPGKGLEWVSAISGTGYTTYYADSVKGRFTISRDNSKNTLYLQMNSLRAEDTAVYYCARKRWYGMDVWGQGTTVTVSS VL: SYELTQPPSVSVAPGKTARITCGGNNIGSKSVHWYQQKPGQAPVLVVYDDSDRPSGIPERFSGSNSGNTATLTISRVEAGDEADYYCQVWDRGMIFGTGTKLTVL | Kd | 0.103 nM |
| B04 scFv-Fc (scFv, V domains shown, Tested as scFv-Fc fusion (human IgG1 Fc, vector pDNL9) in crude yeast supernatant; Combo 1 library) VH: EVQLVESGGGVVQPGRSLRLSCAASGFSFSSRAMNWVRQAPGKGLEWVSAVSGSGSGTYYADSVKGRFTISRDNSKNTLYLQMNSLRAEDTAVYYCARKRWYGMDVWGQGTTVTVSS VL: SYELTQPPSVSVAPGKTARITCGGNNIGLKSVHWYQQKPGQAPVLVVYDDSDRPSGIPERFSGSNSGNTATLTISRVEAGDEADYYCQVWDRGMIFGTGTKLTVL | Kd | 0.172 nM |
| B07 scFv-Fc (scFv, V domains shown, Tested as scFv-Fc fusion (human IgG1 Fc, vector pDNL9) in crude yeast supernatant; Combo 2 library) VH: EVQLVESGGGVVQPGRSLRLSCAASGFTFGDRAMNWVRQAPGKGLEWVSAISGSGATTYYADSVKGRFTISRDNSKNTLYLQMNSLRAEDTAVYYCARKRWYGMDVWGQGTTVTVSS VL: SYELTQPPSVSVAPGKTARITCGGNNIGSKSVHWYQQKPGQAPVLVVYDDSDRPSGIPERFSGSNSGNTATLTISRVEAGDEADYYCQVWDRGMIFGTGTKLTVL | Kd | 0.054 nM |
| B03 scFv-Fc (scFv, V domains shown, Tested as scFv-Fc fusion (human IgG1 Fc, vector pDNL9) in crude yeast supernatant; Combo 1 library) VH: EVQLVESGGGVVQPGRSLRLSCAASGFTFGDRAMNWVRQAPGKGLEWVSAISGSGSGTYYADSVKGRFTISRDNSKNTLYLQMNSLRAEDTAVYYCARKRWYGMDVWGQGTTVTVSS VL: SYELTQPPSVSVAPGKTARITCGGNNIGMKSVHWYQQKPGQAPVLVVYDDSDRPSGIPERFSGSNSGNTATLTISRVEAGDEADYYCQVWDRGMIFGTGTKLTVL | Kd | 0.07 nM |

src = patent US20240309095A1
